Exam item: assign criterion met to entries whose logP is below 0.3 and criterion not met to entries at or above 0.3. Note that a value of exactly 0.3 receives criterion not met.

{"molecule": "CNS(=O)(=O)c1ccc(N)cc1", "class": "criterion met"}
{"molecule": "O=C(CNC(=O)c1ccccc1)Oc1ccccc1", "class": "criterion not met"}
{"molecule": "Nc1nccc(=O)[nH]1", "class": "criterion met"}
{"molecule": "CC1(O)CC23CC(O)C4(O)C(CC(O)C4(C)C)C(C)(O)C2CCC1C3O (configuration not stated)", "class": "criterion met"}
{"molecule": "O=Cc1cccnc1", "class": "criterion met"}
{"molecule": "CCCCNC(=O)NS(=O)(=O)c1ccc(Cl)cc1", "class": "criterion not met"}

We next turn to a different molecule, shown below.
Identify whether the molecule CN(C)C(N(C)C)=S(I)c1ccc(Br)cc1 (configuration not stated) records logP below 0.3.
criterion met

The values you see were collected from the OPERA property sets (Mansouri et al. 2018).
